Method description: Cmax in ICR mouse at 1 mg/kg, iv measured upto 24 hrs by LC-MS/MS analysis
Format: ADME, organism-based
Conditions used: in vivo

- Entry smiles: "CC(C)(O)c1csc(S(=O)(=O)NC(=O)Nc2c(-c3cccc(Cl)c3Cl)ccc3c2CCC3)c1"
  Cmax (ng/mL): 3920

====

Method description: Tmax in ICR mouse at 1 mg/kg, iv measured upto 24 hrs by LC-MS/MS analysis
Format: ADME, organism-based
Conditions used: in vivo

- Entry smiles: "CC(C)(O)c1csc(S(=O)(=O)NC(=O)Nc2c(-c3cccc(Cl)c3Cl)ccc3c2CCC3)c1"
  Tmax, min: 4.98
